Test system: lambsquarters
measurementProtocol: Test C pre-/postemergence herbicide test
Type: in vivo, Chenopodium album
cond: 62 g ai/ha; preemergence
measuredParameter: Plant response rating (0 = no effect, 100 = complete control), Lambsquarters

>  <testSmiles>
CC(=NO)c1cccc(NC(=O)c2cc(C(C)(C)C)nn2CCF)c1

>  <measuredResult>
100

$$$$
>  <testSmiles>
C=Cn1nc(C(C)(C)C)cc1C(=O)Nc1cccc(C(C)=NO)c1

>  <measuredResult>
80

$$$$
>  <testSmiles>
CCn1nc(C(C)(C)C)cc1C(=O)Nc1cccc(SC(F)(F)F)c1

>  <measuredResult>
10

$$$$
>  <testSmiles>
CCn1nc(C(C)(C)C)cc1C(=O)Nc1cccc2c1CCN(C1CC1)C2=O

>  <measuredResult>
0

$$$$
>  <testSmiles>
CCn1nc(C(C)(C)C)cc1C(=O)Nc1cccc(SC)c1

>  <measuredResult>
95

$$$$
>  <testSmiles>
C#CCn1nc(C(C)(C)C)cc1C(=O)Nc1cccc(C(=O)NCC)c1

>  <measuredResult>
85

$$$$
